Reported Hydrophobicity (HPLC Retention Time, min) values for a set of molecules
# testDescription: RP-HPLC retention time as measure of β-peptide hydrophobicity
# Format: physicochemical
# conditionsUsed: chromatographic, analytical RP-HPLC, C18 (Waters X-bridge, 4.6 mm × 250 mm), gradient 20%–80% CH3CN in water with 0.1% TFA over 5–35 min, 1 mL/minute, 0.5 to 1 mg/mL, 50 µL injected; mean ± standard deviation of triplicate measurements
# Source text: β-peptides were produced by microwave-assisted Fmoc synthesis at 20−40 μmol scales and purified by RP-HPLC using a C18 column. MALDI mass spectrometry was used to validate the mass of each peptide as described previously. Retention times determined by C18 RP-HPLC were used as a measure of the relative hydrophobicity of the β-peptides (Table 1). This approach has been used previously by our group and others to assess the relative hydrophobicity of different peptide structures. […]
measurementKind: Hydrophobicity (HPLC Retention Time, min)

{"molecule": "CC[C@@H](CC(=O)N[C@@H](CCCNC(=N)N)CC(=O)N[C@H]1CCCC[C@@H]1C(=O)N[C@@H](CC)CC(=O)N[C@@H](CCCNC(=N)N)CC(=O)N[C@H]1CCCC[C@@H]1C(=O)N[C@@H](CC)CC(=O)N[C@@H](CCCNC(=N)N)CC(N)=O)NC(=O)[C@H]1CCCC[C@@H]1NC(=O)C[C@@H](N)Cc1ccc(O)cc1 [Peptide 11]", "dataValue": 24.2}
{"molecule": "N=C(N)NCCC[C@@H](CC(N)=O)NC(=O)[C@H]1CCCC[C@@H]1NC(=O)[C@H]1CCCC[C@@H]1NC(=O)C[C@H](CCCNC(=N)N)NC(=O)[C@H]1CCCC[C@@H]1NC(=O)[C@H]1CCCC[C@@H]1NC(=O)C[C@H](CCCNC(=N)N)NC(=O)[C@H]1CCCC[C@@H]1NC(=O)[C@H]1CCCC[C@@H]1N [Peptide 7]", "dataValue": 23.8}
{"molecule": "CC[C@@H](CC(=O)N[C@@H](CCCNC(=N)N)CC(N)=O)NC(=O)[C@H]1CCCC[C@@H]1NC(=O)C[C@H](CCCNC(=N)N)NC(=O)C[C@H](CC)NC(=O)[C@H]1CCCC[C@@H]1NC(=O)C[C@H](CCCNC(=N)N)NC(=O)C[C@H](CC)NC(=O)[C@H]1CCCC[C@@H]1N [Peptide 3]", "dataValue": 23.2}

----------
# System: human red blood cells (hRBCs)
# testDescription: Hemolysis of human red blood cells
# Assay type: cell-based
# conditionsUsed: red cells of human
measurementKind: Peptide Concentration at 50% Hemolysis (HC50) (µg/mL)

{"compound": "CC(C)[C@@H](CC(=O)N[C@@H](CCCCN)CC(=O)N[C@H]1CCCC[C@@H]1C(=O)N[C@H](CC(=O)N[C@@H](CCCCN)CC(=O)N[C@H]1CCCC[C@@H]1C(=O)N[C@H](CC(=O)N[C@@H](CCCCN)CC(N)=O)C(C)C)C(C)C)NC(=O)[C@H]1CCCC[C@@H]1NC(=O)C[C@@H](N)Cc1ccc(O)cc1 [Peptide 12]", "modifier": "=", "dataValue": 12}
{"compound": "C[C@@H](CC(=O)N[C@@H](CCCCN)CC(=O)N[C@H]1CCCC[C@@H]1C(=O)N[C@@H](C)CC(=O)N[C@@H](CCCCN)CC(=O)N[C@H]1CCCC[C@@H]1C(=O)N[C@@H](C)CC(=O)N[C@@H](CCCCN)CC(N)=O)NC(=O)[C@H]1CCCC[C@@H]1NC(=O)C[C@@H](N)Cc1ccc(O)cc1 [Peptide 9]", "modifier": ">", "dataValue": 400}
{"compound": "CC[C@@H](CC(=O)N[C@@H](CCCCN)CC(=O)N[C@H]1CCCC[C@@H]1C(=O)N[C@@H](CC)CC(=O)N[C@@H](CCCCN)CC(=O)N[C@H]1CCCC[C@@H]1C(=O)N[C@@H](CC)CC(=O)N[C@@H](CCCCN)CC(N)=O)NC(=O)[C@H]1CCCC[C@@H]1NC(=O)C[C@@H](N)Cc1ccc(O)cc1 [Peptide 10]", "modifier": "=", "dataValue": 149}
{"compound": "CC(C)[C@@H](CC(=O)N[C@@H](CCCNC(=N)N)CC(=O)N[C@H]1CCCC[C@@H]1C(=O)N[C@H](CC(=O)N[C@@H](CCCNC(=N)N)CC(=O)N[C@H]1CCCC[C@@H]1C(=O)N[C@H](CC(=O)N[C@@H](CCCNC(=N)N)CC(N)=O)C(C)C)C(C)C)NC(=O)[C@H]1CCCC[C@@H]1NC(=O)C[C@@H](N)Cc1ccc(O)cc1 [Peptide 13]", "modifier": "=", "dataValue": 11}
{"compound": "CC[C@@H](CC(=O)N[C@@H](CCCNC(=N)N)CC(=O)N[C@H]1CCCC[C@@H]1C(=O)N[C@@H](CC)CC(=O)N[C@@H](CCCNC(=N)N)CC(=O)N[C@H]1CCCC[C@@H]1C(=O)N[C@@H](CC)CC(=O)N[C@@H](CCCNC(=N)N)CC(N)=O)NC(=O)[C@H]1CCCC[C@@H]1NC(=O)C[C@@H](N)Cc1ccc(O)cc1 [Peptide 11]", "modifier": "=", "dataValue": 79}
{"compound": "NCCCC[C@@H](CC(N)=O)NC(=O)[C@H]1CCCC[C@@H]1NC(=O)[C@H]1CCCC[C@@H]1NC(=O)C[C@H](CCCCN)NC(=O)[C@H]1CCCC[C@@H]1NC(=O)[C@H]1CCCC[C@@H]1NC(=O)C[C@H](CCCCN)NC(=O)[C@H]1CCCC[C@@H]1NC(=O)[C@H]1CCCC[C@@H]1NC(=O)C[C@@H](N)Cc1ccc(O)cc1 [Peptide 14]", "modifier": "=", "dataValue": 106}
{"compound": "N=C(N)NCCC[C@@H](CC(N)=O)NC(=O)[C@H]1CCCC[C@@H]1NC(=O)[C@H]1CCCC[C@@H]1NC(=O)C[C@H](CCCNC(=N)N)NC(=O)[C@H]1CCCC[C@@H]1NC(=O)[C@H]1CCCC[C@@H]1NC(=O)C[C@H](CCCNC(=N)N)NC(=O)[C@H]1CCCC[C@@H]1NC(=O)[C@H]1CCCC[C@@H]1NC(=O)C[C@@H](N)Cc1ccc(O)cc1 [Peptide 15]", "modifier": "=", "dataValue": 73}
{"compound": "NCCCC[C@@H](CC(N)=O)NC(=O)C[C@H](Cc1ccccc1)NC(=O)[C@H]1CCCC[C@@H]1NC(=O)C[C@H](CCCCN)NC(=O)C[C@H](Cc1ccccc1)NC(=O)[C@H]1CCCC[C@@H]1NC(=O)C[C@H](CCCCN)NC(=O)C[C@H](Cc1ccccc1)NC(=O)[C@H]1CCCC[C@@H]1NC(=O)C[C@@H](N)Cc1ccc(O)cc1 [Peptide 16]", "modifier": "=", "dataValue": 3}

----------
Entries and their measured Hydrophobicity (HPLC Retention Time, min) follow.
# testDescription: RP-HPLC retention time as measure of β-peptide hydrophobicity
# Format: physicochemical
# conditionsUsed: chromatographic, analytical RP-HPLC, C18 (Waters X-bridge, 4.6 mm × 250 mm), gradient 20%–80% CH3CN in water with 0.1% TFA over 5–35 min, 1 mL/minute, 0.5 to 1 mg/mL, 50 µL injected; mean ± standard deviation of triplicate measurements
measurementKind: Hydrophobicity (HPLC Retention Time, min)

{"molecule": "CC(C)[C@@H](CC(=O)N[C@@H](CCCNC(=N)N)CC(N)=O)NC(=O)[C@H]1CCCC[C@@H]1NC(=O)C[C@H](CCCNC(=N)N)NC(=O)C[C@@H](NC(=O)[C@H]1CCCC[C@@H]1NC(=O)C[C@H](CCCNC(=N)N)NC(=O)C[C@@H](NC(=O)[C@H]1CCCC[C@@H]1N)C(C)C)C(C)C [Peptide 5]", "dataValue": "25.4 ± 0.1 min"}
{"molecule": "NCCCC[C@@H](CC(N)=O)NC(=O)[C@H]1CCCC[C@@H]1NC(=O)[C@H]1CCCC[C@@H]1NC(=O)C[C@H](CCCCN)NC(=O)[C@H]1CCCC[C@@H]1NC(=O)[C@H]1CCCC[C@@H]1NC(=O)C[C@H](CCCCN)NC(=O)[C@H]1CCCC[C@@H]1NC(=O)[C@H]1CCCC[C@@H]1NC(=O)C[C@@H](N)Cc1ccc(O)cc1 [Peptide 14]", "dataValue": "24.0 ± 0.2 min"}
{"molecule": "NCCCC[C@@H](CC(N)=O)NC(=O)C[C@H](Cc1ccccc1)NC(=O)[C@H]1CCCC[C@@H]1NC(=O)C[C@H](CCCCN)NC(=O)C[C@H](Cc1ccccc1)NC(=O)[C@H]1CCCC[C@@H]1NC(=O)C[C@H](CCCCN)NC(=O)C[C@H](Cc1ccccc1)NC(=O)[C@H]1CCCC[C@@H]1NC(=O)C[C@@H](N)Cc1ccc(O)cc1 [Peptide 16]", "dataValue": "27.4 ± 0.2 min"}

----------
# testDescription: RP-HPLC retention time as measure of β-peptide hydrophobicity
# Type: physicochemical
# conditionsUsed: chromatographic, analytical RP-HPLC, C18 (Waters X-bridge, 4.6 mm × 250 mm), gradient 20%–80% CH3CN in water with 0.1% TFA over 5–35 min, 1 mL/minute, 0.5 to 1 mg/mL, 50 µL injected; mean ± standard deviation of triplicate measurements
measurementKind: Hydrophobicity (HPLC Retention Time, min)

{"compound": "N=C(N)NCCC[C@@H](CC(N)=O)NC(=O)[C@H]1CCCC[C@@H]1NC(=O)[C@H]1CCCC[C@@H]1NC(=O)C[C@H](CCCNC(=N)N)NC(=O)[C@H]1CCCC[C@@H]1NC(=O)[C@H]1CCCC[C@@H]1NC(=O)C[C@H](CCCNC(=N)N)NC(=O)[C@H]1CCCC[C@@H]1NC(=O)[C@H]1CCCC[C@@H]1NC(=O)C[C@@H](N)Cc1ccc(O)cc1 [Peptide 15]", "dataValue": 24.6}
{"compound": "C[C@@H](CC(=O)N[C@@H](CCCCN)CC(N)=O)NC(=O)[C@H]1CCCC[C@@H]1NC(=O)C[C@H](CCCCN)NC(=O)C[C@H](C)NC(=O)[C@H]1CCCC[C@@H]1NC(=O)C[C@H](CCCCN)NC(=O)C[C@H](C)NC(=O)[C@H]1CCCC[C@@H]1N [Peptide 1]", "dataValue": 19.3}
{"compound": "NCCCC[C@@H](CC(N)=O)NC(=O)[C@H]1CCCC[C@@H]1NC(=O)[C@H]1CCCC[C@@H]1NC(=O)C[C@H](CCCCN)NC(=O)[C@H]1CCCC[C@@H]1NC(=O)[C@H]1CCCC[C@@H]1NC(=O)C[C@H](CCCCN)NC(=O)[C@H]1CCCC[C@@H]1NC(=O)[C@H]1CCCC[C@@H]1N [Peptide 6]", "dataValue": 23.1}
{"compound": "C[C@@H](CC(=O)N[C@@H](CCCCN)CC(=O)N[C@H]1CCCC[C@@H]1C(=O)N[C@@H](C)CC(=O)N[C@@H](CCCCN)CC(=O)N[C@H]1CCCC[C@@H]1C(=O)N[C@@H](C)CC(=O)N[C@@H](CCCCN)CC(N)=O)NC(=O)[C@H]1CCCC[C@@H]1NC(=O)C[C@@H](N)Cc1ccc(O)cc1 [Peptide 9]", "dataValue": 20.4}
